Reported GI50 values for a set of molecules
tested on: SW-620; test: NCI tumour cell line growth inhibition, 48 h
The source made the active and inactive calls. Cut-off read from the data, not from the text of the source: active = GI50 up to about 1.1 µM and inactive = higher.
measured.parameter: GI50

* O=C(O)c1ccc([I+]c2ccccc2)cc1 | > 100 µM (inactive)
* Cc1ncc([N+](=O)[O-])n1CCNC(=O)Cn1c([N+](=O)[O-])cnc1C | > 100 µM (inactive)
* CN(C)/N=N/c1ccc(S(N)(=O)=O)cc1 | > 100 µM (inactive)
* O=C1c2cccnc2S(=O)(=O)N1c1ccc(Br)cc1 | > 100 µM (inactive)
* Cc1ccc(S(=O)(=O)NC2(C=O)CCC(C(C)(C)C)CC2)cc1 (stereo not given) | 70.3 µM (inactive)

* * *

test system: SNB-75; experiment: NCI tumour cell line growth inhibition, 48 h
The source made the active and inactive calls. Rule as the data show it: active = GI50 up to about 1.1 µM and inactive = higher. Peptide text beside a SMILES is read from it. * marks the point of attachment. Boc = CC(C)(C)OC(=O)*
Reported GI50 values for a set of compounds
measured.parameter: GI50

- COc1ccc(C(=O)C/C(=N/NC(N)=S)C(=O)Nc2ccccc2)cc1: 99.3 µM (inactive)
- COC(=O)C(Cc1ccccc1)NC(=O)C(CS)NC(=O)OC(C)(C)C (stereo not drawn) (Boc-Cys-Phe-OMe; configuration not given here): > 100 µM (inactive)
- NC(=O)c1cc2ccccc2c(/N=N/c2ccccc2)c1O: > 100 µM (inactive)
- CC(=O)C(C(=O)c1ccc(C)cc1)[C@H]1OC(C)(C)O[C@H]1[C@H]1COC(C)(C)O1 (some centres undefined): 3.78 µM (inactive)
- Nc1ncnc2c1ncn2C1OC(COP(=O)(O)CP(=O)(O)O)C(O)C1O (centres undefined): > 100 µM (inactive)
- Nc1nc2c(ncn2CCCC(c2ccccc2)P(=O)(O)O)c(=O)[nH]1 (centres undefined): > 100 µM (inactive)
- CC1(C)OCC(CO)(Nc2nc(N3CC3)nc(N3CC3)n2)CO1: 6.58 µM (inactive)
- COc1nc2c(c(O)c(C)c(=O)n2OC2OCC(OC(C)=O)C(OC(C)=O)C2OC(C)=O)c(=O)n1C (centres undefined): > 100 µM (inactive)
- CN(C)c1ccc(C2SCC(=O)N2c2ccc(Oc3ccc(Cl)cc3)c(Cl)c2)cc1 (centres undefined): 17.6 µM (inactive)

* * *

tested on: SNB-78; assay: NCI tumour cell line growth inhibition, 48 h
Calls of active or inactive are those of the source. Rule as the data show it: active = GI50 up to about 1.1 µM and inactive = higher.
Outcomes: label 1 for active, label 0 for inactive

* COC(=O)C1=C(C)C(=O)[C@H]2C(C(=O)OC)CCCC[C@@H]12 (stereo not given in full) | label 0
* CN(C(=O)C12C3C4C5C3C1(C(=O)O)C5C42)C(C)(C)C (stereo not given) | label 0
* c1ccc2c(NCCCCCCCCNc3cccc4ccccc34)cccc2c1 | label 0
* CC(/C(=N/NC(=O)C(N)=O)c1c(Cl)ccc(Cl)c1O)C1(O)C(=O)Nc2ccccc21 (stereo not given) | label 0
* CC(C)(C)NNC(=O)/C(=C/c1ccc([N+](=O)[O-])cc1)NC(=O)c1ccccc1 | label 0
* COc1cc(OC)c(C2CC=Cc3c(OC)cc(OC)c(OC)c32)cc1OC (stereo not given) | label 0
* COc1cc(C2C(C(=O)Nc3ccccc3)=C(C)NC(C)=C2C(=O)Nc2ccccc2)ccc1O | label 0
* O=C(O)/C(Cl)=C(\Cl)Nc1cccc(C(F)(F)F)c1 | label 0
* COc1nc2c(c(O)c(C)c(=O)n2OC2OCC(OC(C)=O)C(OC(C)=O)C2OC(C)=O)c(=O)n1C (stereo not given) | label 0
* C[C@]12CCNC(=O)C=C1CC[C@@H]1C2CC[C@@]2(C)C1CC[C@@H]2OC(=O)COc1ccc(N(CCCl)CCCl)cc1 (stereo not given in full) | label 0
* N#CC1=C(c2ccccc2)OC2(N)OC(c3ccccc3)=C(C#N)C12C#N (stereo not given) | label 0
* COC(=O)C1=C(O)C(O)=C(C(=O)OC)CC1 | label 0
* COc1ccc(Nc2nc3c(N)cc(C(F)(F)F)cc3nc2-c2ccccc2)cc1 | label 0
* CCOc1ccc2c(c1)[n+]([O-])c(C(N)=O)c(N)[n+]2[O-] | label 0
* N#Cc1ccccc1NC(=O)C(=O)C(C(=O)c1ccncc1)C1OC(=O)c2ccccc21 (stereo not given) | label 0
* COc1c(O)c(C=O)c2c(O)c(-c3c(C)cc4c(C(C)C)c(OC)c(O)c(C=O)c4c3O)c(C)cc2c1C(C)C [6,6'-METHOXYGOSSYPOL] | label 0
* CCOC(=O)C(=C=Cc1cccs1)C(=O)c1ccccc1 | label 0
* Cc1n(CC(=O)c2ccc([N+](=O)[O-])cc2)c2c([n+]1CC(C)C)C(=O)c1ccccc1C2=O | label 1
* C[C@@H]1OC(=O)N2CCCC(=C3SCCCS3)C12 (stereo not given in full) | label 0
* O=C1CSC(/C(=C/c2ccccc2)c2nc3ccccc3[nH]2)=N1 | label 0
